# assayText: PBS stability assay at 37 °C via LC-MS/MS
# Assay type: physicochemical
# assayConditions: phosphate-buffered saline (DPBS), pH 7.03, PBS, 37 °C; unit not given (h in Table S23); read-out: t1/2 of allopregnanolone prodrugs in PBS at 37 °C (Table S22) (converted)
Tick criterion met if half-life at 3 µM is 200 min or greater. Tick criterion not met if half-life at 3 µM is less than 200 min.

>>> labelvalue("CNCCN(CCn1ccnc1)C(=O)O/N=C(\\C)[C@H]1CC[C@H]2[C@@H]3CCC4C[C@H](O)CC[C@]4(C)[C@H]3CC[C@]12C (stereo partly drawn) [21k]")
"criterion met"
>>> labelvalue("CNCCN(C(=O)O/N=C(\\C)[C@H]1CC[C@H]2[C@@H]3CCC4C[C@H](O)CC[C@]4(C)[C@H]3CC[C@]12C)C(C)C.O=C(O)C(F)(F)F (stereo partly drawn) [21c]")
"criterion met"
>>> labelvalue("CNCCN(C(=O)O/N=C(\\C)[C@H]1CC[C@H]2[C@@H]3CCC4C[C@H](O)CC[C@]4(C)[C@H]3CC[C@]12C)C1CCC1.O=C(O)C(F)(F)F (stereo partly drawn) [21d]")
"criterion not met"
>>> labelvalue("CNCCN(C(=O)O/N=C(\\C)[C@H]1CC[C@H]2[C@@H]3CCC4C[C@H](O)CC[C@]4(C)[C@H]3CC[C@]12C)C1CC1.O=C(O)C(F)(F)F (stereo partly drawn) [21b]")
"criterion met"
>>> labelvalue("CNCCN(C)C(=O)O/N=C(\\C)[C@H]1CC[C@H]2[C@@H]3CCC4C[C@H](O)CC[C@]4(C)[C@H]3CC[C@]12C.O=C(O)C(F)(F)F (stereo partly drawn) [21a]")
"criterion met"
>>> labelvalue("C/C(=N\\OC(=O)N(C)C[C@@H]1CCCN1)[C@H]1CC[C@H]2[C@@H]3CCC4C[C@H](O)CC[C@]4(C)[C@H]3CC[C@]12C (stereo partly drawn) [21l]")
"criterion not met"
